# Test system: RPMI-8226 leukemia
# ASSAY TEXT: NCI tumour cell line growth inhibition, 48 h
Recorded TGI for the following compounds

Use these answered entries as a reference point.
                                   compound  observed
0  Cc1ccc2nc(CC(=O)c3ccc4ccccc4c3)c(=O)[nH]c2c1  > 100 µM
1  O=C1C=C(NCCc2cc(Cl)c(O)c(Cl)c2)C(=O)c2[nH]cnc21  > 100 µM
2  Cc1cn(C2CC(N=[N+]=[N-])C(CO)O2)c(=O)n(CCCCO)c1=O (stereo unspecified)  > 100 µM
3      O=C1C(Cl)=C(Nc2ccccn2)C(=O)c2ccccc21   7.03 µM
4  COc1cc(/C=N/Nc2ncnc3c2cnn3Cc2ccccc2)ccc1O   > 25 µM

// switching to the query compound
Request: Given the entry COc1ccc2c([nH]c3cc(O)c(C)cc32)c1CC=C(C)C , what TGI was observed with RPMI-8226 leukemia?
Result: > 25 µM

* * *

Recorded TGI for the following molecules
# Test system: NCI-H23 lung
# ASSAY TEXT: NCI tumour cell line growth inhibition, 48 h
Hi! Could you send only the number? It should be in µM, unit omitted.

>>> df
                                   molecule  experimental_system  scale_unit  observed
0  O=C(OC(CNc1c(C(=O)c2ccccc2)c(=O)n(Cc2ccccc2)c(=O)n1Cc1ccccc1)CN1CCCCC1)c1ccccc1 (stereo not given)         NCI-H23 lung          µM      39.2
1       COc1ccc2cc(C(=O)/C=C/c3ccco3)ccc2c1         NCI-H23 lung          µM      42.7
2              O=C(/C=C/c1cccs1)c1ccc(Cl)s1         NCI-H23 lung          µM      51.2

Request: Need TGI of COc1cc(O)c2c(c1O)C(=O)c1cc(C)ncc1C2=O , thanks.
Result: 27.2

* * *

# Test system: COLO 205 colon
# ASSAY TEXT: NCI tumour cell line growth inhibition, 48 h
REPORTED METRIC: TGI

Use these answered entries as a reference point.
                            molecule_smiles  experimental_system  observed
0  Cc1cccc2c(N)c3cccc(C(=O)NCCN4CCOCC4)c3nc12       COLO 205 colon   2.49 µM
1               N#Cc1nc(NC(=O)c2ccccc2)sc1N       COLO 205 colon   > 10 µM
2  O=C1c2cscc2C(=O)c2c(OCc3ccccc3)ccc(OCc3ccccc3)c21       COLO 205 colon  > 100 µM
3  O=C1C(Cl)=C(Nc2cccc(O)c2)C(=O)N1c1ccc(Cl)cc1Cl       COLO 205 colon  > 100 µM

Request: Need TGI of CCN(CC)C(=O)N[C@@H](Cc1ccccc1)C(=O)NC , thanks.
Result: > 100 µM

Request: Need TGI of CO[C@]12CCC(=O)N1C=Cc1c2[nH]c2ccccc12 , thanks.
Result: > 100 µM

* * *

# Test system: UO-31 renal
# ASSAY TEXT: NCI tumour cell line growth inhibition, 48 h
Recorded TGI for the following compounds

Use these answered entries as a reference point.
In [3]: df
Out[3]:
                                   compound  reported_metric  observed
0  COc1ccc(C(=O)C(CC2C(=O)CC(C)(C)C(C(=O)C(=O)Nc3c(C)cccc3C)C2=O)c2ccc(OC)cc2)cc1 (stereo not given)              TGI  > 100 µM
1  COc1cc(/C=C2/C(=O)N=C(NC(C)=O)N2C)ccc1OC(C)=O              TGI  > 100 µM
2  Cc1cccc2c1NC(=O)C2(c1ccc(O)cc1)c1ccc(O)cc1              TGI   78.8 µM
3  CC(=O)[C@]1(C)[C@H](C)O[C@](C)(CO)[C@H]1O[Si](C)(C)c1ccccc1              TGI   46.6 µM
4  CC1C(=O)CC[C@@]2(C)C(=O)CCCC12O (stereo not given in full)              TGI  > 100 µM
5                N#Cc1nc(Nc2ccc(Cl)cc2)sc1N              TGI   26.8 µM

Request: Need TGI of COc1ccc(CCN2COc3ccc4ccc(=O)oc4c3C2)cc1OC , thanks.
Result: > 100 µM

Request: Need TGI of CCOc1ccc(N=Nc2c(-c3ccccc3)nn(C(=O)CC(=O)Nc3cccc(C)c3)c2-c2ccccc2)cc1 , thanks.
Result: > 100 µM

Request: Need TGI of O=C1CCCC(=O)C1C(=O)c1ccc(C(F)(F)F)cc1[N+](=O)[O-] , thanks.
Result: > 100 µM

Request: Need TGI of Cc1cn(C2CC(N=[N+]=[N-])C(CO)O2)c(=O)n(CCCCO)c1=O (stereo not given) , thanks.
Result: > 100 µM

* * *

# Test system: SNB-19 CNS
# ASSAY TEXT: NCI tumour cell line growth inhibition, 48 h
Recorded TGI for the following compounds

Use these answered entries as a reference point.
>>> df
                                   compound  experimental_system  reported_metric  observed
0  COC(=O)c1cc(NC(=O)CN(CCN(CC(=O)O)CC(=O)Nc2ccc(O)c(C(=O)OC)c2)CC(=O)O)ccc1O           SNB-19 CNS              TGI  > 100 µM
1  CCCCCCCCCCCCCC(=O)OC1C(CO)OC(=O)C1O (stereo not given)           SNB-19 CNS              TGI  > 100 µM
2               O=c1c2ccccc2n2n1Cc1ccccc1C2           SNB-19 CNS              TGI  > 100 µM
3  COc1ccc(OC)c(-c2cc(C(=O)O)c3cc4ccccc4cc3n2)c1           SNB-19 CNS              TGI  > 100 µM

Request: Need TGI of C=CCOCn1ccc(NC(=O)c2ccccc2)nc1=O , thanks.
Result: > 100 µM

Request: Need TGI of O=C(Nc1cccc(-n2cc(-c3ccncc3)c(-c3ccc(O)c(Cl)c3)n2)c1)c1ccc(N2CCOCC2)c(C(F)(F)F)c1 , thanks.
Result: > 50 µM

Request: Need TGI of Cc1csc(-c2ccc3c(c2)COC3(CCCN(C)C)c2ccc(F)cc2)c1 (stereo not given) , thanks.
Result: 3.31 µM

Request: Need TGI of COc1cc(CCNc2nc3cc(N)cc(N)c3nc2-c2ccccc2)cc(OC)c1 , thanks.
Result: 18.6 µM

Request: Need TGI of Cc1cc2c(=O)c3ccccc3oc2c(C#N)c1C , thanks.
Result: > 100 µM

Request: Need TGI of Cc1ccc2nc(CC(=O)c3ccc4ccccc4c3)c(=O)[nH]c2c1 , thanks.
Result: > 100 µM

* * *

# Tested on: PC-3 prostate
# ASSAY TEXT: NCI tumour cell line growth inhibition, 48 h; in the data active = GI50 below about 0.43 µM; inactive = the rest
Choose one outcome from this list and give only that: T for active, F for inactive

>>> print(df.to_string())
                                   compound  class_label
0  CC(=O)Nc1ccc(S(=O)(=O)c2ccc(NC(C)=O)cc2)cc1            F
1  O=C(O)CP(=O)(c1ccccc1)c1ccccc1.O=C(O)CP(=O)(c1ccccc1)c1ccccc1.[Cd]            F
2  COc1ccc(C(=O)c2cc(OC)c(OC)c(OC)c2)cc1/C=C/C(=O)c1ccc2c(c1)OCO2            F

Request: How did this test come out for COCO[C@@H]1CC2C=Nc3cc(OCc4ccccc4)c(OC)cc3C(=O)N2C1 (stereo not given in full) ?
Result: F

* * *

# Tested on: A549 NSCLC
# ASSAY TEXT: NCI tumour cell line growth inhibition, 48 h; in the data active means GI50 below about 0.43 µM; inactive means the rest
Choose one outcome from this list and give only that: active, inactive

Request: How did this test come out for O=C1CCCC(=O)C1C(=O)c1ccc(C(F)(F)F)cc1[N+](=O)[O-] ?
Result: inactive

Request: How did this test come out for CCNC(=O)c1ccc2c(c1)nc(-c1ccc(Cl)cc1)n2-c1cc(C(C)(C)C)[nH]n1 ?
Result: inactive

Request: How did this test come out for O=C(OC(CNc1c(C(=O)c2ccccc2)c(=O)n(Cc2ccccc2)c(=O)n1Cc1ccccc1)CN1CCCCC1)c1ccccc1 (centres undefined) ?
Result: inactive

Request: How did this test come out for COc1cc(CCNc2nc3cc(N)cc(N)c3nc2-c2ccccc2)cc(OC)c1 ?
Result: inactive

Request: How did this test come out for Nc1ncnc2c1c(C(=O)NO)cn2C1OC(CO)C(O)C1O (centres undefined) ?
Result: inactive

Request: How did this test come out for CN1CCN(CCCOc2ccc3nc(Nc4ccc(C(F)(F)F)c(Cl)c4)ccc3c2)CC1 ?
Result: inactive

Request: How did this test come out for CC(C)NCCCCCNc1cc(O)cc2cccnc12 ?
Result: inactive

Request: How did this test come out for O=C(Nc1cccc(-n2cc(-c3ccncc3)c(-c3ccc(O)c(Cl)c3)n2)c1)c1ccc(N2CCOCC2)c(C(F)(F)F)c1 ?
Result: inactive

Request: How did this test come out for CS(=O)(=O)c1ccc(-c2[nH]c3ccc(F)cc3c2/C=N/NC(N)=S)cc1 ?
Result: inactive

Request: How did this test come out for [O]=[W](=[O])([OH])[OH] ?
Result: inactive

Request: How did this test come out for Cc1nc2sc(C(=O)Nc3cccc(Cl)c3C)c(N)c2cc1C(=O)c1ccccc1 ?
Result: active

Request: How did this test come out for Cc1ccc(C(CC(=O)c2ccccc2)C(C(=O)c2ccccc2)C(c2ccc(C)cc2)C2C(=O)NC(=S)NC2=O)cc1 (centres undefined) ?
Result: inactive

Request: How did this test come out for O=C1c2ccccc2CCC1(Br)Br ?
Result: inactive

Request: How did this test come out for COC(=O)c1cc(NC(=O)CN(CCN(CC(=O)O)CC(=O)Nc2ccc(O)c(C(=O)OC)c2)CC(=O)O)ccc1O ?
Result: inactive
